# System: NCI-H23
# ASSAY DETAILS: relative viability (nuclei count vs DMSO), 5 days (fraction); higher = more cells survive
# EXPERIMENTAL SETUP: first compound 0.06325 µM
Reported relative viability is given for each of the following compounds.

| COMPOUND | relative viability |
| --- | --- |
| CCNC(=O)c1noc(-c2cc(C(C)C)c(O)cc2O)c1-c1ccc(CN2CCOCC2)cc1 [Luminespib] + NC(=O)Nc1cc(-c2cccc(F)c2)sc1C(=O)N[C@H]1CCCNC1 [AZD7762] (partner 0.2 µM) | 0.133 |
| CCNC(=O)c1noc(-c2cc(C(C)C)c(O)cc2O)c1-c1ccc(CN2CCOCC2)cc1 [Luminespib] + CS(=O)(=O)CCNCc1ccc(-c2ccc3ncnc(Nc4ccc(OCc5cccc(F)c5)c(Cl)c4)c3c2)o1 [Lapatinib] (partner 2 µM) | 0.139 |

====

# System: NCI-H647
# ASSAY DETAILS: relative viability (nuclei count vs DMSO), 5 days (fraction); higher = more cells survive
# EXPERIMENTAL SETUP: first compound 0.2 µM

| COMPOUND | TESTED SYSTEM | relative viability |
| --- | --- | --- |
| Cc1csc(=NC2CCCCC2)n1/N=C/c1ccc(O)c(O)c1O [MIM1] + NC(=O)Nc1cc(-c2cccc(F)c2)sc1C(=O)N[C@H]1CCCNC1 [AZD7762] (partner 0.2 µM) | NCI-H647 | 0.502 |
| Cc1csc(=NC2CCCCC2)n1/N=C/c1ccc(O)c(O)c1O [MIM1] + N=C(N)NC(=N)NCCc1ccccc1 [Phenformin] (partner 250 µM) | NCI-H647 | 0.602 |
| CCNC(=O)c1noc(-c2cc(C(C)C)c(O)cc2O)c1-c1ccc(CN2CCOCC2)cc1 [Luminespib] + Nc1ncn([C@H]2C[C@H](O)[C@@H](CO)O2)c(=O)n1 [Decitabine] (partner 2 µM) | NCI-H647 | 0.124 |
| CCNC(=O)c1noc(-c2cc(C(C)C)c(O)cc2O)c1-c1ccc(CN2CCOCC2)cc1 [Luminespib] + COc1cc2c(Oc3ccc(NC(=O)C4(C(=O)Nc5ccc(F)cc5)CC4)cc3F)ccnc2cc1OCCCN1CCOCC1 [Foretinib] (partner 0.25 µM) | NCI-H647 | 0.0972 |
| CN1CCN(CCOc2cc(OC3CCOCC3)c3c(Nc4c(Cl)ccc5c4OCO5)ncnc3c2)CC1 [Saracatinib] + Nc1ncn([C@H]2C[C@H](O)[C@@H](CO)O2)c(=O)n1 [Decitabine] (partner 2 µM) | NCI-H647 | 0.313 |
| Cc1csc(=NC2CCCCC2)n1/N=C/c1ccc(O)c(O)c1O [MIM1] + Cc1nc(NC(=O)N2CCC[C@H]2C(N)=O)sc1-c1ccnc(C(C)(C)C(F)(F)F)c1 [Alpelisib] (partner 2 µM) | NCI-H647 | 1.23 |
| CN1CCN(CCOc2cc(OC3CCOCC3)c3c(Nc4c(Cl)ccc5c4OCO5)ncnc3c2)CC1 [Saracatinib] + CC1(C)CCC(c2ccc(Cl)cc2)=C(CN2CCN(c3ccc(C(=O)NS(=O)(=O)c4ccc(N[C@H](CCN5CCOCC5)CSc5ccccc5)c(S(=O)(=O)C(F)(F)F)c4)cc3)CC2)C1 [Navitoclax] (partner 0.5 µM) | NCI-H647 | 0.959 |
| CN1CCN(CCOc2cc(OC3CCOCC3)c3c(Nc4c(Cl)ccc5c4OCO5)ncnc3c2)CC1 [Saracatinib] + C[C@@H](Oc1cc(-c2cnn(C3CCNCC3)c2)cnc1N)c1c(Cl)ccc(F)c1Cl [Crizotinib] (partner 1 µM) | NCI-H647 | 0.707 |
| CCNC(=O)c1noc(-c2cc(C(C)C)c(O)cc2O)c1-c1ccc(CN2CCOCC2)cc1 [Luminespib] + COc1cccc2cc(-c3nc([C@H]4CC[C@H](C(=O)O)CC4)n4ncnc(N)c34)[nH]c12 [OSI-027] (partner 0.5 µM) | NCI-H647 | 0.0562 |

====

# Tested on: EBC-1
# ASSAY DETAILS: relative viability (nuclei count vs DMSO), 5 days (fraction); higher = more cells survive
# EXPERIMENTAL SETUP: first compound 0.01 µM

| MOLECULE | relative viability |
| --- | --- |
| Cc1cn(-c2cc(NC(=O)c3ccc(C)c(Nc4nccc(-c5cccnc5)n4)c3)cc(C(F)(F)F)c2)cn1 [Nilotinib] + CS(=O)(=O)N1CCN(Cc2cc3nc(-c4cccc5[nH]ncc45)nc(N4CCOCC4)c3s2)CC1 [Pictilisib] (partner 1 µM) | 0.313 |
| Cc1cn(-c2cc(NC(=O)c3ccc(C)c(Nc4nccc(-c5cccnc5)n4)c3)cc(C(F)(F)F)c2)cn1 [Nilotinib] + Cc1nc(NC(=O)N2CCC[C@H]2C(N)=O)sc1-c1ccnc(C(C)(C)C(F)(F)F)c1 [Alpelisib] (partner 2 µM) | 0.811 |
| Cc1cn(-c2cc(NC(=O)c3ccc(C)c(Nc4nccc(-c5cccnc5)n4)c3)cc(C(F)(F)F)c2)cn1 [Nilotinib] + CC1(C)CCC(c2ccc(Cl)cc2)=C(CN2CCN(c3ccc(C(=O)NS(=O)(=O)c4ccc(N[C@H](CCN5CCOCC5)CSc5ccccc5)c(S(=O)(=O)C(F)(F)F)c4)cc3)CC2)C1 [Navitoclax] (partner 0.5 µM) | 0.332 |
| Cc1cn(-c2cc(NC(=O)c3ccc(C)c(Nc4nccc(-c5cccnc5)n4)c3)cc(C(F)(F)F)c2)cn1 [Nilotinib] + COc1cc2c(Oc3ccc(NC(=O)C4(C(=O)Nc5ccc(F)cc5)CC4)cc3F)ccnc2cc1OCCCN1CCOCC1 [Foretinib] (partner 0.25 µM) | 0.105 |

====

# Tested on: NCI-H2405
# ASSAY DETAILS: relative viability (nuclei count vs DMSO), 5 days (fraction); higher = more cells survive
# EXPERIMENTAL SETUP: first compound 0.002 µM
READOUT NAME: relative viability

| MOLECULE | READOUT NAME | ENDPOINT VALUE |
| --- | --- | --- |
| CCNC(=O)c1noc(-c2cc(C(C)C)c(O)cc2O)c1-c1ccc(CN2CCOCC2)cc1 [Luminespib] + CS(=O)(=O)CCNCc1ccc(-c2ccc3ncnc(Nc4ccc(OCc5cccc(F)c5)c(Cl)c4)c3c2)o1 [Lapatinib] (partner 2 µM) | relative viability | 1.17 |
| CCNC(=O)c1noc(-c2cc(C(C)C)c(O)cc2O)c1-c1ccc(CN2CCOCC2)cc1 [Luminespib] + CC(=O)c1c(C)c2cnc(Nc3ccc(N4CCNCC4)cn3)nc2n(C2CCCC2)c1=O [Palbociclib] (partner 0.5 µM) | relative viability | 0.557 |
| CCNC(=O)c1noc(-c2cc(C(C)C)c(O)cc2O)c1-c1ccc(CN2CCOCC2)cc1 [Luminespib] + COc1cccc2cc(-c3nc([C@H]4CC[C@H](C(=O)O)CC4)n4ncnc(N)c34)[nH]c12 [OSI-027] (partner 0.5 µM) | relative viability | 0.648 |
| CCNC(=O)c1noc(-c2cc(C(C)C)c(O)cc2O)c1-c1ccc(CN2CCOCC2)cc1 [Luminespib] + Cc1nc(Nc2ncc(C(=O)Nc3c(C)cccc3Cl)s2)cc(N2CCN(CCO)CC2)n1 [Dasatinib] (partner 0.075 µM) | relative viability | 0.226 |
| CCNC(=O)c1noc(-c2cc(C(C)C)c(O)cc2O)c1-c1ccc(CN2CCOCC2)cc1 [Luminespib] + Cc1nc(NC(=O)N2CCC[C@H]2C(N)=O)sc1-c1ccnc(C(C)(C)C(F)(F)F)c1 [Alpelisib] (partner 2 µM) | relative viability | 0.968 |
| CCNC(=O)c1noc(-c2cc(C(C)C)c(O)cc2O)c1-c1ccc(CN2CCOCC2)cc1 [Luminespib] + Nc1nc2[nH]cc(CCc3ccc(C(=O)N[C@@H](CCC(=O)O)C(=O)O)cc3)c2c(=O)[nH]1 [Pemetrexed] (partner 0.2 µM) | relative viability | 1.08 |
| CCNC(=O)c1noc(-c2cc(C(C)C)c(O)cc2O)c1-c1ccc(CN2CCOCC2)cc1 [Luminespib] + N=C(N)NC(=N)NCCc1ccccc1 [Phenformin] (partner 250 µM) | relative viability | 0.417 |

====

# System: NCI-H1666
# ASSAY DETAILS: relative viability (nuclei count vs DMSO), 5 days (fraction); higher = more cells survive
# EXPERIMENTAL SETUP: first compound 0.06325 µM

| MOLECULE | TESTED SYSTEM | relative viability |
| --- | --- | --- |
| CCNC(=O)c1noc(-c2cc(C(C)C)c(O)cc2O)c1-c1ccc(CN2CCOCC2)cc1 [Luminespib] + Nc1nc2[nH]cc(CCc3ccc(C(=O)N[C@@H](CCC(=O)O)C(=O)O)cc3)c2c(=O)[nH]1 [Pemetrexed] (partner 0.2 µM) | NCI-H1666 | 0.833 |
| CCNC(=O)c1noc(-c2cc(C(C)C)c(O)cc2O)c1-c1ccc(CN2CCOCC2)cc1 [Luminespib] + CC1(C)CCC(c2ccc(Cl)cc2)=C(CN2CCN(c3ccc(C(=O)NS(=O)(=O)c4ccc(N[C@H](CCN5CCOCC5)CSc5ccccc5)c(S(=O)(=O)C(F)(F)F)c4)cc3)CC2)C1 [Navitoclax] (partner 0.5 µM) | NCI-H1666 | 0.913 |
| CCNC(=O)c1noc(-c2cc(C(C)C)c(O)cc2O)c1-c1ccc(CN2CCOCC2)cc1 [Luminespib] + O=C(CCCCCCC(=O)Nc1ccccc1)NO [Vorinostat] (partner 1 µM) | NCI-H1666 | 1.03 |
| CCNC(=O)c1noc(-c2cc(C(C)C)c(O)cc2O)c1-c1ccc(CN2CCOCC2)cc1 [Luminespib] + Cc1nc(Nc2ncc(C(=O)Nc3c(C)cccc3Cl)s2)cc(N2CCN(CCO)CC2)n1 [Dasatinib] (partner 0.075 µM) | NCI-H1666 | 0.85 |
| CCNC(=O)c1noc(-c2cc(C(C)C)c(O)cc2O)c1-c1ccc(CN2CCOCC2)cc1 [Luminespib] + CS(=O)(=O)CCNCc1ccc(-c2ccc3ncnc(Nc4ccc(OCc5cccc(F)c5)c(Cl)c4)c3c2)o1 [Lapatinib] (partner 2 µM) | NCI-H1666 | 0.718 |

Attribution: the supplement of paper PMC10307832
